Hello, the source for this data is ChEMBL document CHEMBL1201862, in case you need it.

tested on: OVCAR-8; experiment: NCI tumour cell line growth inhibition, 48 h
Activity calls are given as the source filed them. Rule as the data show it: active = GI50 up to about 1.1 µM and inactive = higher.
value.kind: GI50

// query GI50 value for entry COC(=O)[C@]1(c2cc3ccccc3n2S(=O)(=O)c2ccccc2)CC2CN(C(=O)OCc3ccccc3)C1C1OC(C)(C)OC21 (stereo not given in full)
> 100 µM (inactive)

Please look up its GI50: COc1cc(C2S/C(=C/c3ccccc3)C(=O)N2c2ccc(Cl)cc2)cc(OC)c1OC (stereo not given)
22.1 µM (inactive)

Please report the recorded GI50 for COC(=O)/C(C)=C(/CCC1(C)OCCO1)O[Si](C)(C)C .
> 100 µM (inactive)

Look up GI50: O=C(NNc1cn[nH]c(=O)n1)c1cccc2nc3ccccc3nc12
39.3 µM (inactive)

Give its GI50 value. Item: CN1c2ccc(Cl)cc2C(=O)NC1c1ccc([N+](=O)[O-])s1 (stereo not given)
15.8 µM (inactive)

###

test system: T47D; assay: NCI tumour cell line growth inhibition, 48 h
Calls of active or inactive are those of the source. No stated cut-off is given here; in the data, active = GI50 up to about 1.1 µM and inactive = higher.
Mark one answer only. Choices: active, inactive

What did the test return for CC1(C)SC2C(C(=O)O)N=C(Cc3ccccc3)N2C1C(=O)O (stereo not given) ?
inactive

Query: recorded result category for COc1ccc(-c2c(C#N)c(=O)nc(SC)n2C2OCC(OC(C)=O)C(OC(C)=O)C2OC(C)=O)cc1 (stereo not given) in this test
inactive

I would be grateful if you could indicate the recorded call for O=c1[nH]c(=O)n([C@@H]2O[C@H](CO)[C@@H](O)[C@H]2O)cc1F .
active

Called result for CC(C)c1ccc2c(c1)CCC1C(C)(CN)CCCC21C (stereo not given)
inactive

What is the recorded call for this molecule in the test? O=C(c1ccco1)N(C(=S)OCc1ccccn1)c1ccccc1
inactive

Test call for this molecule, please: N/C(=N\O)NCCN1CCCCCCC1
inactive

Which outcome was assigned to C[C@@H](Cl)[C@H]1CCCN(Cc2ccc(Br)cc2)C1 in this test?
inactive

Look up the recorded call for O=C(O)c1cc(NC2=C(Cl)C(=O)c3c(O)ccc(O)c3C2=O)ccc1O in this test.
inactive

Hello, I am checking results. What call was entered for COc1cccc(C2c3cc4c(cc3OC(N3CCCC3)C2C)OCO4)c1OC (stereo not given) ?
inactive

Test call, this molecule: c1cncc(-c2cc(-c3cc(-c4cccnc4)[nH]n3)n[nH]2)c1
inactive

###

test system: NCI/ADR-RES; assay: NCI tumour cell line growth inhibition, 48 h
The source made the active and inactive calls. Rule as the data show it: active = GI50 up to about 1.1 µM and inactive = higher. Where a SMILES comes first, the peptide text is derived from it. [ ]: non-standard residue; d: D form. The star is where a group is joined. ξ: configuration not given here. NMeF = CN[C@@H](Cc1ccccc1)C(=O)O; NMeV = CN[C@H](C(=O)O)C(C)C; ξNMeN = CNC(CC(N)=O)C(=O)O; NMeA = CN[C@@H](C)C(=O)O; ξNMeV = CNC(C(=O)O)C(C)C; Boc = CC(C)(C)OC(=O)*
So I've got a bunch of molecules here, and I need their GI50 values.

I have this molecule here, C[C@H]1CC[C@@H]2[C@@H](C)[C@H]3[C@H](C[C@H]4[C@@H]5CC=C6C[C@@H](O)CC[C@]6(C)[C@H]5C[C@H](O)[C@]34C)N2C1 , and I need its recorded GI50.
> 100 µM (inactive)

Which GI50 value belongs to COc1cccc2c1C(=O)c1c(O)c3c(c(O)c1C2=O)C[C@@](O)(C(C)=O)C[C@@H]3OC1CC(N(Cc2ccccc2)Cc2ccccc2)C(O)C(C)O1 (stereo partly specified) ?
10.3 µM (inactive)

Please give the measured GI50 for this molecule: CC1CCCc2c(-c3ccc(Cl)cc3)nc(N)c(C#N)c21 (stereo unspecified)
23.2 µM (inactive)

Using the record for CC1(C)Cc2c(c3ccccc3c3nc4c(nc23)c2c(c3ccccc34)OC(C)(C)C2)O1 , report its GI50.
> 100 µM (inactive)

// returns reported GI50 for input CCCCC(=O)c1c(O)ccc2c(C)cc(=O)oc12
55.7 µM (inactive)

// lookup GI50 for CCOC(=O)c1ccc(/N=C2/C(=S)N(c3ccc(C(=O)OCC)cc3)C(=N)N2/N=C/c2ccccc2)cc1
38.3 µM (inactive)

Look at this molecule and give its reported GI50. C[C@H]1C/C=C/[C@H]2[C@@H]3O[C@]3(C)[C@@H](C)[C@H]3[C@H](Cc4ccccc4)NC(=O)[C@]32OC(=O)O/C=C/[C@@](C)(O)C1=O
5.69 µM (inactive)

Which GI50 value belongs to c1cc(CNCCN2CCNCC2)ccn1 ?
> 100 µM (inactive)

// lookup GI50 for CN(C)CCNC(=O)c1c(O)ccc2c1c1c(n2CCc2ccccc2)C(=O)c2ccccc2C1=O
13.5 µM (inactive)

Param item = COC(=O)[C@H](C)N(C)C(=O)C(CC(N)=O)N(C)C(=O)[C@H](Cc1ccccc1)N(C)C(=O)[C@@H]1CCCN1C(=O)[C@H](C(C)C)N(C)C(=O)C(C(C)C)N(C)C(=O)[C@@H](NC(=O)OC(C)(C)C)C(C)C (stereo partly specified) (Boc-V[ξNMeV][NMeV]P[NMeF][ξNMeN][NMeA]-OMe) ; retrieve measured GI50.
> 50 µM (inactive)

Can you look up the measured GI50 of CC(C)=CC(=O)c1[nH]c2ccccc2c1CC(=O)NCCc1cncn1C for me?
> 100 µM (inactive)

Returns the measured GI50 for the input molecule. Input: Cc1nc(C)c(N2CCN(Cc3ccccc3)CC2)c(O)n1
> 100 µM (inactive)

For the molecule Cc1ccc(/N=N/c2c(O)c3ccccc3[nH]c2=O)c(S(=O)(=O)N(C)C)c1 , what GI50 is on record?
> 100 µM (inactive)

Query (molecule): Cc1cc2c(cc1Cl)SC(c1ccccc1O)NS2(=O)=O (stereo unspecified) ; field requested: GI50
30.7 µM (inactive)

Recorded GI50 of CN(C(=O)c1ccc2c(c1)sc1c(=O)n(C)c3ccccc3c12)c1ccccc1 , please.
> 100 µM (inactive)

Consider the molecule shown here: CO[P@@]1(=O)O[C@@H](c2ccccc2)[C@H](O)[C@]1(O)c1ccccc1 What is its recorded GI50?
> 100 µM (inactive)
